- Tested target: human PTH1 receptor (Homo sapiens)
- Sequence (Q03431 27-593): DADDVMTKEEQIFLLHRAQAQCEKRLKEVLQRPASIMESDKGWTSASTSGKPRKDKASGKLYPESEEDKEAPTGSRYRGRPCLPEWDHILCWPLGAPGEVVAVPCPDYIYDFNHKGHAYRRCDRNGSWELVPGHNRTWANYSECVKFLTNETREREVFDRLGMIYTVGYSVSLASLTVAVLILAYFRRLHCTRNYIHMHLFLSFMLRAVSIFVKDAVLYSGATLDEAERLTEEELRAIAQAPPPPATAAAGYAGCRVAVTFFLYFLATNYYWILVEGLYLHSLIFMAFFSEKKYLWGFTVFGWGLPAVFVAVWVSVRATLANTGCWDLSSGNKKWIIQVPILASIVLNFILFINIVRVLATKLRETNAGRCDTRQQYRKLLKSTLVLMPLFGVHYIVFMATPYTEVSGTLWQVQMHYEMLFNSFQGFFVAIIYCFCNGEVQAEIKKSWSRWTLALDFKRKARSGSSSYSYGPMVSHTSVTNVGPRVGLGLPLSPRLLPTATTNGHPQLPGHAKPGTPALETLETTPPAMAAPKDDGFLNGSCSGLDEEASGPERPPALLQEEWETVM
- Test method notes: In vitro cAMP signal activity in HKRK-B7 cells (LLC-PK1 cells overexpressing the human PTH1 receptor)
- Assay type: cell-based
- Test settings: HKRK-B7 cells; compound at 1×10^−3 M; cAMP produced as percentage of that produced by hPTH(1-34) at 100 nM
Binned cAMP production activity (%); ranges: range A: < 20%; range B: ≥ 20% and < 70%; range C: ≥ 70%

>  <Compound>
Cc1cc(N(C)C(N)=O)cc(C)c1CCS(=O)(=O)N1CCC2(CC1)N=C(CCCCCCCCCF)NC2=O

>  <Answer label>
range C

$$$$
>  <Compound>
Cc1cccc(C2=NC3(CCN(S(=O)(=O)CCc4ccc(C(=O)N(C)C)cc4C)CC3)C(=O)N2)n1

>  <Answer label>
range A

$$$$
>  <Compound>
Cc1cc(CNC(N)=O)cc(C)c1CCS(=O)(=O)N1CCC2(CC1)N=C(C1CCC(CCC(F)(F)F)CC1)NC2=O (centres unmarked)

>  <Answer label>
range C

$$$$
>  <Compound>
Cc1cc(N(CCO)C(=O)CO)ccc1/C=C/S(=O)(=O)N1CCC2(CC1)N=C(c1cccc(OC(F)(F)F)c1)NC2=O

>  <Answer label>
range B

$$$$
>  <Compound>
CCCCC1CCC(C2=NC3(CCN(S(=O)(=O)/C=C/c4ccc(N5C(=O)CNC5=O)cc4C)CC3)C(=O)N2)CC1 (centres unmarked)

>  <Answer label>
range B

$$$$
>  <Compound>
CC(=O)N(CCN(C)C)c1cc(C)c(/C=C/S(=O)(=O)N2CCC3(CC2)N=C(c2cccc(OC(F)(F)F)c2)NC3=O)c(C)c1

>  <Answer label>
range A

$$$$
>  <Compound>
Cc1cc(C(=O)N2CCC(O)(CF)CC2)cc(C)c1/C=C/S(=O)(=O)N1CCC2(CC1)N=C(c1ccc(OC(C)(C)C(F)(F)F)c(C(F)(F)F)c1)NC2=O

>  <Answer label>
range C

$$$$
>  <Compound>
CCCCCC#CCCC1=NC2(CCN(S(=O)(=O)/C=C/c3c(C)cc(N(C)C(N)=O)cc3C)CC2)C(=O)N1

>  <Answer label>
range C

$$$$
>  <Compound>
Cc1ccc(OCCC(O)CO)cc1/C=C/S(=O)(=O)N1CCC2(CC1)N=C(c1cccc(OC(F)(F)F)c1)NC2=O (centres unmarked)

>  <Answer label>
range B

$$$$
>  <Compound>
O=C1NC(c2cccc(Cl)c2)=NC12CCN(S(=O)(=O)c1cccc(Cl)c1)CC2

>  <Answer label>
range A

$$$$
>  <Compound>
CO[C@H]1CC[C@H](C2=NC3(CCN(S(=O)(=O)c4cccc(Cl)c4)CC3)C(=O)N2)CC1

>  <Answer label>
range A

$$$$
>  <Compound>
Cc1cc(C(=O)N(C)C)ccc1CCS(=O)(=O)N1CCC2(CC1)N=C(c1nccn1C)NC2=O

>  <Answer label>
range A

$$$$
